- study.system: RET(KD: 658-1114 G810R) (Homo sapiens, UniProt P07949, G810R)
- Construct: 658-1114; expressed in transfected cells; host or cells: 293T.165 (293T cells, generated in-house)
- Sequence (P07949 658-1114 G810R): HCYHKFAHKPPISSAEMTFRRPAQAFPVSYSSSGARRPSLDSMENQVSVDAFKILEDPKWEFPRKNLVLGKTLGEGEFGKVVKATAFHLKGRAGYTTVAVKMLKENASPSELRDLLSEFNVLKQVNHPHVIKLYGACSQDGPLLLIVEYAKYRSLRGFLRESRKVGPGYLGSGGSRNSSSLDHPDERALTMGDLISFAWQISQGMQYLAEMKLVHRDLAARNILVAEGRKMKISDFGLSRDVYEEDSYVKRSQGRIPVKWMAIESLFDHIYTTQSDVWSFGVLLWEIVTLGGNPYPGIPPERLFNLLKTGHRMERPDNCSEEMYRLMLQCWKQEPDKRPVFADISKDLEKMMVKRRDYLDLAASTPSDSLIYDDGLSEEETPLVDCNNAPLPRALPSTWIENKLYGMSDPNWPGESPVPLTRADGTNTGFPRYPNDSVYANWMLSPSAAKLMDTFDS
- protocol.details: HiBiT-Degradation, RET G810R degradation assay (Nano-Glo HiBiT Lytic), 293T.165 cells
- Format: cell-based
- run.parameters: 6.0 hours, half-maximal degradation concentration, read-out: 293T.165 RET(KD: 658-1114 G810R) 6.0 hours (DC50)
Form field: DC50 (one value per entry).

Please review the following examples before continuing.
Cn1nc(N2CCC(=O)NC2=O)c2ccc(N3CCN([C@H]4CC[C@H](n5cc(-c6cn7ncc(C#N)c7c(-c7ccc(N8C[C@H]9COC[C@@H](C8)N9Cc8ccccn8)nc7)n6)cn5)CC4)CC3)c(F)c21 [Compound 208] | < 100 nM
N#Cc1cnn2cc(-c3cnn(C4CCN(C(=O)CN5CCC(c6ccc(NC7CCC(=O)NC7=O)cc6F)CC5)CC4)c3)nc(-c3ccc(N4CCN(Cc5ccccn5)CC4)cc3)c12 (stereo not shown) [Compound 61] | < 100 nM
N#Cc1cnn2cc(-c3ccc(N4CCN(C(=O)CN5CCC(c6ccc(NC7CCC(=O)NC7=O)cc6)CC5)CC4)cc3)cc(-c3ccc(N4CCN(CCc5ccccn5)CC4)nc3)c12 (stereo not shown) [Compound 18] | < 100 nM

Form field DC50, entry CCC1(C(=O)N[C@H](C)C(F)(F)F)CCN(c2ccc(-c3cc(-c4cnn(C5CCN(C(=O)CN6CCC(c7ccc(NC8CCC(=O)NC8=O)cc7F)CC6)CC5)c4)cn4ncc(C#N)c34)cn2)CC1 (stereo partly shown) [Compound 7] : < 1000 nM

Form field DC50, entry N#Cc1cnn2cc(-c3cnn(C4CCN(C(=O)CC5(O)CCN(c6ccc(NC7CCC(=O)NC7=O)cc6F)CC5)CC4)c3)nc(-c3ccc(N4CCN(C(=O)C5CCCCC5)CC4)nc3)c12 (stereo not shown) [Compound 107] : < 100 nM

Form field DC50, entry COC1(C(=O)NC(C)C)CCN(c2ccc(-c3cc(-c4cnn(C5CCN(C(=O)CN6CCC(c7ccc(NC8CCC(=O)NC8=O)cc7F)CC6)CC5)c4)cn4ncc(C#N)c34)cn2)CC1 (stereo not shown) [Compound 6] : < 50 nM

Form field DC50, entry N#Cc1cnn2cc(-c3cnn(C4CCN(C(=O)CC5(O)CCN(c6ccc(NC7CCC(=O)NC7=O)cc6F)CC5)CC4)c3)nc(-c3ccc(N4CCC(c5ncccn5)CC4)nc3)c12 (stereo not shown) [Compound 36] : < 50 nM

Form field DC50, entry N#Cc1cnn2cc(-c3ccc(C4CCN(C(=O)CC5(O)CCN(c6ccc(NC7CCC(=O)NC7=O)cc6F)CC5)CC4)cc3)nc(-c3ccc(N4CCN(C(=O)c5ccon5)CC4)nc3)c12 (stereo not shown) [Compound 175] : < 100 nM

Form field DC50, entry N#Cc1cnn2cc(-c3cnn(C4CCN(C(=O)CC5(O)CCN(c6ccc(NC7CCC(=O)NC7=O)cc6F)CC5)CC4)c3)cc(-c3ccc(N4CCC(c5ccc(O)cc5)CC4)nc3)c12 (stereo not shown) [Compound 197] : < 50 nM

Form field DC50, entry CCC1(C(=O)NC2CCC2)CCN(c2ccc(-c3nc(-c4cnn(C5CCN(C(=O)CC6(O)CCN(c7ccc(NC8CCC(=O)NC8=O)cc7F)CC6)CC5)c4)cn4ncc(C#N)c34)cn2)CC1 (stereo not shown) [Compound 81] : < 50 nM

----------
- study.system: RET(KD: 658-1114 G810R) (Homo sapiens, UniProt P07949, G810R)
- Construct: 658-1114; expressed in transfected cells; host or cells: 293T.165 (293T cells, generated in-house)
- protocol.details: HiBiT-Degradation, RET G810R degradation assay (Nano-Glo HiBiT Lytic), 293T.165 cells
- Type: cell-based
- run.parameters: HiBiT-Degradation, 6.0 hours, read-out: 293T.165 RET(KD: 658-1114 G810R) 6.0 hours (DC50)
Where a name gives a salt, the structure may show the parent alone.
experimental.readout: DC50

CCC1(C(=O)NC(C)C)CCN(c2ccc(-c3nc(-c4cnn(C5CCN(C(=O)CN6CCC(c7ccc(NC8CCC(=O)NC8=O)cc7F)CC6)CC5)c4)cn4ncc(C#N)c34)cn2)CC1 (stereo not shown) [Compound 53] | < 50 nM
CC(C)NC(=O)C1(C(C)C)CCN(c2ccc(-c3cc(-c4cnn(C5CCN(C(=O)CN6CCC(c7ccc(NC8CCC(=O)NC8=O)cc7F)CC6)CC5)c4)cn4ncc(C#N)c34)cn2)CC1 (stereo not shown) [Compound 56] | < 100 nM

Form field DC50, entry Cn1nc(N2CCC(=O)NC2=O)c2ccc(C3CCN(CC(=O)N4CCN(c5ccc(-c6cc(-c7ccc(N8CCN(Cc9ccccn9)CC8)nc7)c7c(C#N)cnn7c6)cc5)CC4)CC3)cc21 [Compound 65] : < 100 nM

Form field DC50, entry CCC1(C(=O)NC(C)C)CCN(c2ccc(-c3nc(-c4cnn(C5CCN(C(=O)CN6CCC(c7ccc(NC8CCC(=O)NC8=O)cc7)CC6)CC5)c4)cn4ncc(C#N)c34)cn2)CC1 (stereo not shown) [Compound 31] : < 50 nM

Form field DC50, entry N#Cc1cnn2cc(-c3cnn(C4CCN(C(=O)CN5CCC(c6ccc(NC7CCC(=O)NC7=O)cc6)CC5)CC4)c3)cc(-c3ccc(N4CCN(C(=O)Cc5ccc(F)cn5)CC4)nc3)c12 (stereo not shown) [Compound 15, formic acid salt] : < 100 nM

Form field DC50, entry N#Cc1cnn2cc(-c3ccc(N4CCN(C(=O)CN5CCC(c6ccc(NC7CCC(=O)NC7=O)cc6)CC5)CC4)cc3)cc(-c3ccc(N4CC5CC5C4)nc3)c12 (stereo not shown) [Compound 17] : < 50 nM

Form field DC50, entry CC(C)NC(=O)C1(C)CCN(c2ccc(-c3cc(-c4cnn(C5CCN(C(=O)CN6CCC(c7ccc(NC8CCC(=O)NC8=O)cc7F)CC6)CC5)c4)cn4ncc(C#N)c34)cn2)CC1 (stereo not shown) [Compound 2] : < 50 nM

Form field DC50, entry CCC1(C(=O)NC2CCC2)CCN(c2ccc(-c3cc(-c4cnn(C5CCN(C(=O)CN6CCC(c7ccc(NC8CCC(=O)NC8=O)cc7F)CC6)CC5)c4)cn4ncc(C#N)c34)cn2)CC1 (stereo not shown) [Compound 8] : < 50 nM

Form field DC50, entry CCC1(C(=O)NC(C)C)CCN(c2ccc(-c3cc(-c4ccc(N5CCC(O)(CCN6CCC(c7ccc(NC8CCC(=O)NC8=O)cc7F)CC6)CC5)cc4)cn4ncc(C#N)c34)cn2)CC1 (stereo not shown) [Compound 39] : < 50 nM

----------
- study.system: RET(KD: 658-1114 G810R) (Homo sapiens, UniProt P07949, G810R)
- Construct: 658-1114; expressed in transfected cells; host or cells: 293T.165 (293T cells, generated in-house)
- protocol.details: HiBiT-Degradation, RET G810R degradation assay (Nano-Glo HiBiT Lytic), 293T.165 cells
- Assay type: cell-based
- run.parameters: 6.0 hours, half-maximal degradation concentration, read-out: 293T.165 RET(KD: 658-1114 G810R) 6.0 hours (DC50)
experimental.readout: DC50

Please review the following examples before continuing.
N#Cc1cnn2cc(-c3cnn(C4CCN(C(=O)CC5(O)CCN(c6ccc(NC7CCC(=O)NC7=O)cc6F)CC5)CC4)c3)nc(-c3ccc(N4CC5CC(C4)N5Cc4ccccc4)nc3)c12 (stereo not drawn) | < 50 nM
CCC1(C(=O)NC(C)C)CCN(c2ccc(-c3nc(-c4ccc(C5CCN(C(=O)CN6CC(c7ccc(NC8CCC(=O)NC8=O)cc7F)C6)CC5)cc4)cn4ncc(C#N)c34)cn2)CC1 (stereo not drawn) | < 100 nM

Form field DC50, entry CC(C)NC(=O)C1(C)CCN(c2ccc(-c3cc(-c4cnn([C@H]5CC[C@H](CCN6CCC(c7ccc8c(N9CCC(=O)NC9=O)nn(C)c8c7)CC6)CC5)c4)cn4ncc(C#N)c34)cn2)CC1 : < 100 nM

Form field DC50, entry CCC1(C(=O)NC(C)C)CCN(c2ccc(-c3cc(-c4cnn([C@H]5CC[C@@H](N6CCC(c7ccc(NC8CCC(=O)NC8=O)cc7F)CC6)CC5)c4)cn4ncc(C#N)c34)cn2)CC1 (stereo partly drawn) : < 1000 nM

Form field DC50, entry CCC1(C(=O)NC(C)C)CCN(c2ccc(-c3nc(-c4cnn(C5CCN(C(=O)CC6(O)CCN(c7ccc(N[C@@H]8CCC(=O)NC8=O)cc7F)CC6)CC5)c4)cn4ncc(C#N)c34)cn2)CC1 (single isomer, unassigned) : < 50 nM

Form field DC50, entry CCC1(C(=O)NC[C@H]2C[C@@H](F)C2)CCN(c2ccc(-c3nc(-c4cnn([C@H]5CC[C@H](N6CCN(c7ccc(NC8CCC(=O)NC8=O)cc7F)CC6)CC5)c4)cn4ncc(C#N)c34)cn2)CC1 (stereo partly drawn) : < 100 nM

Values compiled from patent US12661410B2.
